- Tested on: Mycobacterium tuberculosis
- assay-overview: Antimycobacterial activity against Mycobacterium tuberculosis H37Rv
- Assay type: functional, organism-based
Consider the following compounds; for each one, report its MIC.
Give bare numbers, in µM.

Guide cases for MIC, answers given:
C/C(=N\O)[C@@H]1CC[C@]2(CO)CC[C@]3(C)[C@H](CC[C@@H]4[C@@]5(C)CCCNC(C)(C)[C@@H]5CC[C@]43C)[C@@H]12 ... 43
CC[C@@H](CO)NCCN[C@@H](CC)CO ... 6.25

Below: the item to evaluate.
Given `CC1(C)CC[C@]2(COC(=O)CCC(=O)O)CC[C@]3(C)C(=CC[C@@H]4[C@@]5(C)CCCNC(C)(C)[C@@H]5CC[C@]43C)[C@H]2C1` , respond with its MIC.
100
